These entries and their values trace back to patent US20120309706A1.

methodSummary: Masitinib clearance half-life
condition: human, in vivo
measure: half-life

Query: So what does the record say about half-life for Cc1ccc(NC(=O)c2ccc(CN3CCN(C)CC3)cc2)cc1Nc1nc(-c2cccnc2)cs1 ?
Reply: 17 h

###

Assignment: determine reported IC50 for the given molecules.
Tested on: Mia Paca-2
methodSummary: WST-1 proliferation/survival assay, Mia Paca-2
Assay type: cell-based, human
condition: Homo sapiens; Mia Paca-2, single agent, 72 hours, 1% FCS; read-out: IC50

Query: So what does the record say about IC50 for Nc1ccn(C2OC(CO)C(O)C2(F)F)c(=O)n1 (centres unmarked) ?
Reply: > 10 µM

Query: Also Cc1ccc(NC(=O)c2ccc(CN3CCN(C)CC3)cc2)cc1Nc1nc(-c2cccnc2)cs1 ?
Reply: 5 to 10 µM

###

Tested on: Panc-1
methodSummary: WST-1 proliferation/survival assay, Panc-1
Assay type: cell-based
condition: Homo sapiens; Panc-1, single agent, 72 hours, 1% FCS; read-out: IC50
Assignment: determine reported IC50 for the given compounds.

Query: So what does the record say about IC50 for Cc1ccc(NC(=O)c2ccc(CN3CCN(C)CC3)cc2)cc1Nc1nc(-c2cccnc2)cs1 ?
Reply: 5 to 10 µM

Query: Also Nc1ccn(C2OC(CO)C(O)C2(F)F)c(=O)n1 (centres unmarked) ?
Reply: > 10 µM

###

System: BxPC-3
methodSummary: WST-1 proliferation/survival assay, BxPC-3
Type: cell-based, human
condition: BxPC-3, single agent, 72 hours, 1% FCS
Description: Sensitivity of pancreatic tumour cell lines to masitinib or gemcitabine as single agents, or in combination, was assessed using WST-1 proliferation assays. Four cell lines were tested for their sensitivity to masitinib (A) or gemcitabine (B). […] (D) Sensitivity of resistant Mia Paca-2 cells to various tyrosine kinase inhibitors alone (top) or in combination with gemcitabine (bottom) was analyzed in WST-1 proliferation assays. […]
measure: IC50

Query: So what does the record say about IC50 for Nc1ccn(C2OC(CO)C(O)C2(F)F)c(=O)n1 (stereo not shown) ?
Reply: 2 to 20 µM
